Reference source: PubChem BioAssay (NCI)

test system: NCI-H522 lung; assay: NCI-60 one-dose screen, 48 h; settings: 10 µM unless noted
The panel holds about 83,000 compounds, 20% with a hit somewhere; the sample as a whole holds those more often. Activity calls are given as the source filed them. Rule for the calls: active = growth percent below 10; inactive = the rest.
Form entry, call: pick from Y = active, N = inactive

Query: recorded result category for Clc1nc(Cl)c2ncn(CC#CCn3cnc4c(Cl)nc(Cl)nc43)c2n1 in this test Y

Query: recorded result category for O=C(c1ccc(/C=C/c2n[nH]c3ccccc23)cc1)N1CCNCC1 in this test N

Query: recorded result category for CC(C)c1cc(CNc2nc(Nc3cc(C4CC4)[nH]n3)cc(N3CCN(C)CC3)n2)on1 in this test Y

Query: recorded result category for Cc1c(CN2CCN(C(=O)[C@H](C)O)CC2)sc2c(N3CCOCC3)nc(-c3cnc(N)nc3)nc12 in this test Y

Query: recorded result category for Cc1[nH]n(C(N)=S)c(=O)c1N=Nc1ccc(S(=O)(=O)Nc2ccncn2)cc1 in this test N

Query: recorded result category for Cc1ccc2oc(=O)cc(-c3cc(-c4cc5ccccc5oc4=O)nc(N)c3C#N)c2c1 in this test N

Query: recorded result category for CC1(C)NC(=O)c2[nH]c3c(Cl)c(Cl)ccc3c2C1C#N (configuration not stated) in this test N

Query: recorded result category for CN(C)C1CCN(C(=O)c2ccc(NC(=O)Nc3ccc(-c4nc(N5CCOCC5)nc(N5CCOCC5)n4)cc3)cc2)CC1 in this test Y

Query: recorded result category for CS(=O)(=O)CCNCc1ccc(-c2ccc3ncnc(Nc4ccc(OCc5cccc(F)c5)c(Cl)c4)c3c2)o1 in this test Y

Query: recorded result category for COC(=O)[C@H](Cc1ccccc1)NC(=O)[C@@H](OC)[C@@H]1Cc2cc3cc(OC4CC(OC5CC(O)C(O)C(C)O5)C(O)C(C)O4)c(C)c(O)c3c(O)c2C(=O)[C@H]1OC1CC(OC2CC(OC3CC(C)(O)C(O)C(C)O3)C(O)C(C)O2)C(O)C(C)O1 (some centres not stated) in this test Y

Query: recorded result category for C[C@]12O[C@H](C[C@]1(O)CO)n1c3ccccc3c3c4c(c5c6ccccc6n2c5c31)CNC4=O in this test Y

Query: recorded result category for C=C1C(=O)O[C@H]2[C@H]1CC/C(Cn1cc(-c3cc(C)c(C)cc3C)nn1)=C\CC[C@@]1(C)O[C@@H]21 in this test Y

Query: recorded result category for Cc1ccc(F)c(NC(=O)Nc2ccc(-c3cccc4[nH]nc(N)c34)cc2)c1 in this test Y

Query: recorded result category for CCCCn1c(C)nc2cc(Nc3nc(N4CCCCC4)nc4nc[nH]c34)ccc21 in this test N

Query: recorded result category for NC(=O)c1c(OCc2c(F)cc(Br)cc2F)nsc1NC(=O)NCCCCN1CCCC1 in this test Y

Query: recorded result category for c1cn2cc(-c3ccc4cn[nH]c4c3)nc(Nc3ccc(N4CCOCC4)cc3)c2n1 in this test N

Query: recorded result category for CC[n+]1c(/C=C/C=C2\N(C)c3ccccc3C2(C)C)sc2ccccc21 in this test Y

---

system: 786-0 renal; test: NCI-60 one-dose screen, 48 h (100 = growth as untreated, 0 = no growth, -100 = all killed); conditions: 10 µM unless noted
About 83,000 compounds went through this panel and 20% of them were active in at least one assay; those are over-represented in the sample as a whole.
recorded endpoint: growth (%)
Numeric answer only, unit % assumed.

Item Cc1cn(-c2cc(NC(=O)c3ccc(C)c(Nc4nccc(-c5cnccn5)n4)c3)cc(C(F)(F)F)c2)cn1 : provide growth 97.7

Item CO[C@H]1C[C@@H]2CC[C@@H](C)[C@@](O)(O2)C(=O)C(=O)N2CCCC[C@H]2C(=O)O[C@H]([C@H](C)C[C@@H]2CC[C@@H](OP(C)(C)=O)[C@H](OC)C2)CC(=O)[C@H](C)/C=C(\C)[C@@H](O)[C@@H](OC)C(=O)[C@H](C)C[C@H](C)\C=C/C=C/C=C/1C : provide growth 53.3

Item CC(C)(C)c1ccc(Cn2cc(CSc3nc4ccccc4s3)nn2)cc1 : provide growth 96.2

---

tested on: PC-3 prostate; assay: NCI-60 one-dose screen, 48 h (100 = growth as untreated, 0 = no growth, -100 = all killed); conditions: 10 µM unless noted
Compounds without any hit were thinned out: in the full panel of roughly 83,000, 20% have a hit.
Label key: label 1 means growth under 20%; label 0 means growth of 20% or more.

Criterion: growth strictly below 20%. Is it met by CN1[C@@H]2CC[C@H]1/C(=C\c1ccccc1)C1=C2[C@@H](c2ccccc2)C(C#N)=C(N)O1 ? label 0

Criterion: growth strictly below 20%. Is it met by CC(C)(C)CC(C)(C)Nc1c(-c2c(O)c3ccccc3oc2=O)nc2c(Cl)cc(C(F)(F)F)cn12 ? label 0

Criterion: growth strictly below 20%. Is it met by CC(C)=CCc1cc2c(cc1O)C1=C(C(=O)C3=C(C1=O)S(=O)(=O)CCN3)C(C=C(C)C)O2 (stereo unspecified) ? label 1

Criterion: growth strictly below 20%. Is it met by COc1cc(NCCCN)c2ncccc2c1 ? label 0

Criterion: growth strictly below 20%. Is it met by Clc1ccc(Nc2nccc(Nc3ccc4[nH]ncc4c3)n2)cc1 ? label 0

Criterion: growth strictly below 20%. Is it met by FC(F)(F)c1ccc(CNc2ccc(Cc3c[nH]c4ncc(Cl)cc34)cn2)cn1 ? label 1

Criterion: growth strictly below 20%. Is it met by CNC(=O)c1cc(COc2nnc(Nc3ccc(Cl)cc3)c3ccoc23)ccn1 ? label 0

Criterion: growth strictly below 20%. Is it met by C#Cc1cccc(Nc2ncnc3cc4c(cc23)OCCOCCOCCO4)c1 ? label 0

Criterion: growth strictly below 20%. Is it met by CC(=O)Oc1ccccc1C(=O)N=C1[Se]CCN1C(=O)c1ccccc1OC(C)=O ? label 1

Criterion: growth strictly below 20%. Is it met by C[C@@H](N)c1ccc(C(=O)Nc2ccnc3[nH]ccc23)cc1 ? label 0

Criterion: growth strictly below 20%. Is it met by C[C@@]1(C(=O)Nc2ccc(F)nc2)CCCN1c1nc(Nc2cc(C3CC3)[nH]n2)c2cccn2n1 ? label 0

Criterion: growth strictly below 20%. Is it met by Cc1nc2ccc(-n3ncc(C(=O)c4cc5ccccc5[nH]4)c3N)cc2[nH]1 ? label 0

Criterion: growth strictly below 20%. Is it met by Nc1c2c(c(O)c3c1=C(CO)C=N3)=NCCS2 ? label 1

Criterion: growth strictly below 20%. Is it met by COc1cc(-c2cc(-c3ccc(Nc4ccnc5cc(Cl)ccc45)cc3)nc(N3CCOCC3)n2)cc(OC)c1OC ? label 1

Criterion: growth strictly below 20%. Is it met by CCCNC(=O)c1cn2ncnc(Nc3cc(C(=O)NC4CC4)ccc3C)c2c1C ? label 0

Criterion: growth strictly below 20%. Is it met by CCOC(=O)C1=C(C)N=C2Sc3cccc(OC)c3N2[C@H]1c1ccccn1 ? label 0

---

Assignment: determine reported growth for the given molecules.
system: KM12 colon; test: NCI-60 one-dose screen, 48 h (100 = growth as untreated, 0 = no growth, -100 = all killed); conditions: 10 µM unless noted
This is part of a sample that, as a whole, favours compounds with a hit. Of some 83,000 tested, about 20% had one in any assay.
Numeric answer only, unit % assumed.

Item CCCS(=O)(=O)Nc1ccc(F)c(C(=O)c2c[nH]c3ncc(-c4ccc(Cl)cc4)cc23)c1F : provide growth 32

Item CC(=Nc1ccccc1)C1=C(O)C(Cc2ccccc2)NC1=O (stereo not drawn) : provide growth -46.3

Item Cc1c(Cn2c(C)nc3c(C(=O)O)cc(N4CCOCC4)cc32)cccc1C(F)(F)F : provide growth 103

Item Cn1ncc(Cl)c1-c1cc(C(=O)N[C@H](CN)Cc2ccc(F)c(F)c2)oc1Cl : provide growth -39.2

Item COc1ccc2c(c1)cn1c3ccc(O)cc3nc(N)c21 : provide growth 27.1

Item CCN(CC)CCNc1ccc(N=Nc2cnc3ccccc3c2)c2ccccc12 : provide growth -87.3

Item Cc1cc(Nc2ncnc3ccc(NC4=NC(C)(C)CO4)cc23)ccc1Oc1ccn2ncnc2c1 : provide growth 21.3

Item COc1cccc(NC(=O)Nc2ccc(Nc3ncnc4sc5c(c34)CCN(C(=O)CCl)C5)cc2)c1 : provide growth 98.1

Item C[C@@H](Oc1cc(C(=O)Nc2ccc(C(=O)N3CCN(C)CC3)cc2)nnc1N)c1c(Cl)ccc(F)c1Cl : provide growth 23

Item NC(=O)Nc1cc(-c2cccc(F)c2)sc1C(=O)N[C@H]1CCCNC1 : provide growth 1.83

Item Cc1cc(C(=O)Nc2cc(Oc3ccc4nc(NC(=O)C5CC5)cn4n3)ccc2C)n(C)n1 : provide growth 12.2

Item CO[C@H]1C[C@@H]2CC[C@@H](C)[C@@](O)(O2)C(=O)C(=O)N2CCCC[C@H]2C(=O)O[C@H]([C@H](C)C[C@@H]2CC[C@@H](O)[C@H](OC)C2)CC(=O)[C@H](C)/C=C(\C)[C@@H](O)[C@@H](OC)C(=O)[C@H](C)C[C@H](C)\C=C/C=C/C=C/1C : provide growth 42.8

Item CCc1ccc(C2=C(O)C(=O)C(c3ccc(CC)cc3)=C(O)C2=O)cc1 : provide growth -1.36

Item Cn1ccnc1C(=O)/C=C/c1ccc(CC(=O)Nc2ccc(Br)cc2)cc1 : provide growth 4.87

Item COc1cc2c(Oc3ccc(NC(=O)C4(C(=O)Nc5ccc(F)cc5)CC4)cc3F)ccnc2cc1OCCCN1CCOCC1 : provide growth 0.619

Item CCCCCc1ccc(C)cc1OC(=O)CCl : provide growth 106

Item COc1ncc(-c2ccc3nccc(-c4ccnnc4)c3c2)cc1NS(=O)(=O)c1ccc(F)cc1F : provide growth -60.5

Item COc1ccc(-n2c(=O)c3ccccc3n(Cc3ccc(C(=O)NO)cc3)c2=O)cc1 : provide growth -32.9
